// provenance: the supplement of paper PMC10567573

B1: SPDEF (parent)
chain: FQELAGKELCAMSEEQFRQRSPLG

Variants of: B1
PROTOCOL NOTES: protein stability index of a GFP-peptide fusion (GPS, HEK-293T) (PSI 1-6); higher = more stable;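 also: lentivirally expressed fusions sorted by FACS into six bins by GFP to DsRed ratio, PSI derived from sequencing read proportions per bin multiplied by bin number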
APPLIED CONDITIONS: c terminus: a fixed tail appended
Is protein stability index at least 3? Then Fulfilled. If not, Not fulfilled.

QUERY: State whether the measured protein stability index reaches 3, counting equality as reaching it, for "S13I"
RESULT: Not fulfilled

QUERY: State whether the measured protein stability index reaches 3, counting equality as reaching it, for "S21P"
RESULT: Not fulfilled

QUERY: State whether the measured protein stability index reaches 3, counting equality as reaching it, for "G24H"
RESULT: Not fulfilled

QUERY: State whether the measured protein stability index reaches 3, counting equality as reaching it, for "C10T"
RESULT: Fulfilled

QUERY: State whether the measured protein stability index reaches 3, counting equality as reaching it, for "A11P"
RESULT: Fulfilled

QUERY: State whether the measured protein stability index reaches 3, counting equality as reaching it, for "S13N"
RESULT: Not fulfilled

QUERY: State whether the measured protein stability index reaches 3, counting equality as reaching it, for "G6I"
RESULT: Not fulfilled

QUERY: State whether the measured protein stability index reaches 3, counting equality as reaching it, for "K7V"
RESULT: Not fulfilled

QUERY: State whether the measured protein stability index reaches 3, counting equality as reaching it, for "E14T"
RESULT: Not fulfilled

QUERY: State whether the measured protein stability index reaches 3, counting equality as reaching it, for "L23W"
RESULT: Not fulfilled

QUERY: State whether the measured protein stability index reaches 3, counting equality as reaching it, for "L23K"
RESULT: Fulfilled

QUERY: State whether the measured protein stability index reaches 3, counting equality as reaching it, for "M12T"
RESULT: Fulfilled

QUERY: State whether the measured protein stability index reaches 3, counting equality as reaching it, for "Q19F"
RESULT: Not fulfilled

QUERY: State whether the measured protein stability index reaches 3, counting equality as reaching it, for "M12V"
RESULT: Not fulfilled

QUERY: State whether the measured protein stability index reaches 3, counting equality as reaching it, for "A11R"
RESULT: Not fulfilled

QUERY: State whether the measured protein stability index reaches 3, counting equality as reaching it, for "P22M"
RESULT: Not fulfilled

QUERY: State whether the measured protein stability index reaches 3, counting equality as reaching it, for "S21I"
RESULT: Not fulfilled

QUERY: State whether the measured protein stability index reaches 3, counting equality as reaching it, for "F1R"
RESULT: Fulfilled
